Measured IC50 (Neprilysin (Rattus norvegicus))
MEASURE: IC50 (nM)

1) O=C(O)CCCNC(=O)C(Cc1ccc(-c2ccccc2)cc1)NCP(=O)(O)O (stereo not given) = 11
2) O=C(O)CNC(=O)C(Cc1ccc(-c2ccccc2)cc1)NCP(=O)(O)O (stereo not given) = 5

###

Measured pIC50 (Neprilysin (Rattus norvegicus))
pIC50: −log10 of the molar value.
MEASURE: pIC50

1) O=C(O)CCNC(=O)C(Cc1ccc(-c2ccc(F)cc2)cc1)NCP(=O)(O)O (stereo unspecified) = 7.85
2) O=C(O)CCNC(=O)[C@H](Cc1ccc(-c2ccccc2)cc1)NCP(=O)(O)Oc1ccccc1 = 6.62
3) O=C(O)CCNC(=O)C(Cc1ccccc1)CP(=O)(O)O (stereo unspecified) = 6.68
4) O=C(O)CCNC(=O)C(Cc1ccc(-c2ccccc2)cc1)NCP(=O)(O)OCc1ccccc1 (stereo unspecified) = 6.00
5) CC(C)C[C@H](NP(=O)(O)O[C@@H]1O[C@@H](C)[C@H](O)[C@@H](O)[C@H]1O)C(=O)N[C@@H](Cc1c[nH]c2ccccc12)C(=O)O = 7.57
